// reported Percent Effect for each item listed
system: Wolbachia pipientis; experiment: Anti-Wolbachia Cell-Based Screen; assay type: functional; set-up: scale not given: in the data most compounds retested in dose-response had high values; details: 5 µM
Hit rate of the full screen: of about 48,000 compounds, about 13,000 (27%) showed an effect of 50% or more. Some of the results follow.
Just the number in %, nothing appended.

Assay Wolbachia pipientis, sample C=C(C)CN1CCC(n2cc(C3CCCC3)nn2)CC1 , Percent Effect read: 14.96

The measured Percent Effect that CCC(CO)N(Cc1ccsc1)Cc1cccc(O)c1 (configuration not stated) showed for Wolbachia pipientis is 4.07

Percent Effect value, target or system Wolbachia pipientis, for CC(C)(C)c1cnc(CN2CCC(NC(=O)CC3CCCC3)CC2)o1 : 1.419

Record CC(C)Nc1nc(-c2ccccc2)nc2c1CCN(C(=O)C1CC1)CC2.O=C(O)C(F)(F)F ; system Wolbachia pipientis; Percent Effect = 99.02
